Every entry's value here was drawn from ChEMBL document CHEMBL5131446.

test: AUC (0 to 24 hrs) in BALB/c mouse at 1 mg/kg, iv; assay type: ADME, organism-based; design: time < 24 hr, dose 1 mg/kg, route iv; settings: in vivo
measurementName: AUC(0-t) at 24 h (ng·h/mL)

These solved cases illustrate the format of a correct answer.
[[record]]
molecule = "CC(C)(O)c1cc(Nc2cc(Oc3cn(C4CC4)nc3C3CCOCC3)ccn2)ccn1 [LY-3200882]"
measurednumber = 212

[[record]]
molecule = "OCCN1CCN(c2ccc(Nc3cc(Oc4cn(C5CC5)nc4C4CCOCC4)ccn3)cc2C(F)(F)F)CC1"
measurednumber = 686

[[record]]
molecule = "CC1(C#N)CN(c2cc(Nc3cc(Oc4cn(C5CC5)nc4C4CCOCC4)ccn3)ccn2)C1"
measurednumber = 268

[[record]]
molecule = "FC1(F)CN(c2cc(Nc3cc(Oc4cn(C5CC5)nc4C4CCOCC4)ccn3)ccn2)C1"
measurednumber = 344


(P) OC1(c2cc(Nc3cc(Oc4cn(C5CC5)nc4C4CCOCC4)ccn3)ccn2)CCC(F)(F)CC1
(Q) OC1(c2cc(Nc3cc(Oc4cn(C5CC5)nc4C4CCOCC4)ccn3)ccn2)CCC(O)(C(F)(F)F)CC1 (stereo unspecified)
# return whichever of P and Q has the smaller AUC(0-t) at 24 h Refer to your chosen entry by its label in the reply.
Q

* * *

experiment: Drug uptake in BALB/c mouse xenografted with […] CT26 cells assessed as AUC of drug at 60 mg/kg administered via oral gavage twice daily and measured on day 19 for upto 4 hrs post administration; format: ADME, organism-based; set-up: time < 4 hr, dose 60 mg/kg, route oral; details: in vivo
measurementName: AUC at 4 h (ng·h/mL)

(P) OCCN1CCN(c2ccc(Nc3cc(Oc4cn(C5CC5)nc4C4CCOCC4)ccn3)cc2C(F)(F)F)CC1
(Q) CC(C)(O)c1cc(Nc2cc(Oc3cn(C4CC4)nc3C3CCOCC3)ccn2)ccn1
# return whichever of P and Q has the smaller AUC at 4 h Refer to your chosen entry by its label in the reply.
Q
